Organism: Homo sapiens
Method: Percentage of aspirin formed during hydrolysis in 10% human plasma at pH 7.4 at 37 degrees celsius
Listing of entries alongside the reported Aspirin formed.
# output: bare number, implied unit %

// worked examples, Aspirin formed included
                                   compound  measurement_name  value_unit  quantitative_readout
0         CC(=O)Oc1ccccc1C(=O)OCCN(C)C(C)=O    Aspirin formed           %                     0
1    CC(=O)Oc1ccccc1C(=O)OCC(=O)N(C)CC(N)=O    Aspirin formed           %                    37
2  CC(=O)Oc1ccccc1C(=O)OC[S+](C)[O-] (stereo not given)    Aspirin formed           %                    30

# get_value(readout='Aspirin formed', item= "CC(=O)Oc1ccccc1C(=O)OCC(=O)N(C)C" ) 50

Now this one: "CSCOC(=O)c1ccccc1OC(C)=O" 0

Again, but for "CCOC(=O)CNC(=O)COC(=O)c1ccccc1OC(C)=O" 0

Next up: CC(=O)Nc1ccc(OC(=O)c2ccccc2OC(C)=O)cc1 [BENORILATE] 0
